- Measured On: Phosphatidylinositol 4,5-bisphosphate 3-kinase catalytic subunit alpha isoform (Homo sapiens, UniProt P42336)
- Sequence (P42336 whole entry, canonical isoform): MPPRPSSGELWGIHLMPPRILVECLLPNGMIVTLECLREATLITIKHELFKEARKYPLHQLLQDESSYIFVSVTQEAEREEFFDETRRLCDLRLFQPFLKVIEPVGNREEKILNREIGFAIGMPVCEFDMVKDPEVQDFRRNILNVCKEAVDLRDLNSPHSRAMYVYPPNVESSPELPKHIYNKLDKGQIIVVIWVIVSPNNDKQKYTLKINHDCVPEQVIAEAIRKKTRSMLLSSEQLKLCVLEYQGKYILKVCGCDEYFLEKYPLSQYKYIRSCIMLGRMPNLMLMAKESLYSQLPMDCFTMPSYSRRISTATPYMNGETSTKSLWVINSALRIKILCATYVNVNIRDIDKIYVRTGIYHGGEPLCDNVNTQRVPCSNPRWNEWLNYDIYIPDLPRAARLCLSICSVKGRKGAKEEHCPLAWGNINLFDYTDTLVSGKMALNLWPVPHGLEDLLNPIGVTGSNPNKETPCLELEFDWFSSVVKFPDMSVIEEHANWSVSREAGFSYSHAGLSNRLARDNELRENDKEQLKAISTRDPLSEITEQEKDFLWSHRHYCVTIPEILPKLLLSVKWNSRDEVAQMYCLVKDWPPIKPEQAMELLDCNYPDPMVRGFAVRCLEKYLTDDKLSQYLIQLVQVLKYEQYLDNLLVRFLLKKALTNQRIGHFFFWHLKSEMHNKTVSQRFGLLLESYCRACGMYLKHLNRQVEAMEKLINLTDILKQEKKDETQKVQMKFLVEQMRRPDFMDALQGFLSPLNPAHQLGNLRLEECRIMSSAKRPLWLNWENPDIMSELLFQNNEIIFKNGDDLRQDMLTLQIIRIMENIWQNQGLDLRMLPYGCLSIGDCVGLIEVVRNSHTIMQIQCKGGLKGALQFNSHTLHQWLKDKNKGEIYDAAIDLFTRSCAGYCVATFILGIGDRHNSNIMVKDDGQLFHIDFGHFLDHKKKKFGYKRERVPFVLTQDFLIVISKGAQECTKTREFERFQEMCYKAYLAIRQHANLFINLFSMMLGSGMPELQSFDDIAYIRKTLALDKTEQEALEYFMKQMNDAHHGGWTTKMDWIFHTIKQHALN
pIC50: −log10 of the molar value.
Outcome Measure: pIC50

CNCC(=O)Nc1ccc(-c2nc(CS(C)(=O)=O)cc(N3CCOC[C@@H]3C)n2)cc1 = 4.60
CC(C)(c1cc([C@]23CCOC[C@H]2C3)nc(-c2ccc(NC(=S)NCCO)cc2)n1)S(C)(=O)=O = 4.60

====

- Experiment Summary: Lipophilicity, logP of the compound by reversed phase column chromatography
- Assay type: physicochemical
Outcome Measure: logP

CS(=O)(=O)Cc1cc(C2=CCOCC2)nc(-c2cccc(O)c2)n1 = 3.3
CCNC(=O)Nc1ccc(-c2nccc(N3CCOC[C@@H]3C)n2)cc1 = 3.4
CCNC(=O)Nc1ccc(-c2nccc([C@]34CCOC[C@H]3C4)n2)cc1 = 3.9
CCNC(=O)Nc1ccc(-c2nc(CS(C)(=O)=O)cc([C@@]34CCOC[C@@H]3C4)n2)cc1 = 3.6
Oc1cccc(-c2nccc([C@@]34CCOC[C@@H]3C4)n2)c1 = 4
CS(=O)(=O)Cc1cc([C@@]23CCOC[C@@H]2C3)nc(-c2cccc(O)c2)n1 = 3.7

I. CCNC(=O)Nc1ccc(-c2nc(C(C)(C)S(C)(=O)=O)cc([C@@]34CCOC[C@@H]3C4)n2)cc1
II. CNCC(=O)Nc1ccc(-c2nc(CS(C)(=O)=O)cc([C@]34CCOC[C@H]3C4)n2)cc1
Param pair: I , II . Output: the one whose logP is numerically greater. # reply format: chosen label
I
